Origin of the recorded values: patent EP2832348B1

Assay: Solubility of triptophenolide in aqueous solutions with different concentrations of gastrodin and/or water-soluble cyclodextrin
Assay type: physicochemical
Conditions: aqueous solution of solubilizer, aqueous with cosolvent or surfactant or cyclodextrin, Gastrodin concentration 15 %
Excerpt: Table 1. Solubility of triptophenolide in aqueous solutions with different concentrations of gastrodin and/or water-soluble cyclodextrin

smiles	solubility, mg/mL
OC[C@H]1O[C@@H](Oc2cc(/C=C/c3cc(O)cc(O)c3)ccc2O)[C@H](O)[C@@H](O)[C@@H]1O	11.8

====

Experiment: Solubility of triptophenolide in aqueous solutions with different concentrations of gastrodin and/or water-soluble cyclodextrin
Type: physicochemical
Conditions: aqueous solution of solubilizer, aqueous with cosolvent or surfactant or cyclodextrin, Solubilizer concentration: Gastrodin 8 %, Hydroxypropyl-β-cyclodextrin 3 %

smiles	solubility [mg/mL]
OC[C@H]1O[C@@H](Oc2cc(/C=C/c3cc(O)cc(O)c3)ccc2O)[C@H](O)[C@@H](O)[C@@H]1O	30.9

====

Test: Solubility of triptophenolide in aqueous solutions with different concentrations of gastrodin and/or water-soluble cyclodextrin
Assay type: physicochemical
Settings: aqueous solution of solubilizer, aqueous with cosolvent or surfactant or cyclodextrin, Gastrodin concentration 50 %
value.type: solubility (mg/mL)

smiles	value.type	experimental.result
OC[C@H]1O[C@@H](Oc2cc(/C=C/c3cc(O)cc(O)c3)ccc2O)[C@H](O)[C@@H](O)[C@@H]1O	solubility	105
